Values were extracted from ChEMBL document CHEMBL3232811.

ASSAY METHOD TEXT: Oral bioavailability in rat at 2 mg/kg
Format: ADME, organism-based
REPORTED CONDITIONS: in vivo
MEASURED ENDPOINT: bioavailability (%)

[I] COc1cc(OC)cc(-c2nnc([C@@]3(Cc4ccccc4)OC(=O)N([C@H](C)c4ccccc4)C3=O)o2)c1
[II] C[C@H](c1ccccc1)N1C(=O)O[C@](Cc2ccccc2)(c2nnc(C3(c4ccccc4)CC3)o2)C1=O
Exam item: Which has the higher bioavailability, I or II ? State the label of the item chosen.
Marked response: II

----------
ASSAY METHOD TEXT: Volume of distribution in rat at 1 mg/kg, iv and 2 mg/kg, po
Type: ADME, organism-based
REPORTED CONDITIONS: in vivo
MEASURED ENDPOINT: Vd (L/kg)

COc1cc(OC)cc(-c2nnc([C@@]3(Cc4ccccc4)OC(=O)N([C@H](C)c4ccccc4)C3=O)o2)c1; 1.2
C[C@H](c1ccccc1)N1C(=O)O[C@](Cc2ccccc2)(c2nnc(C3(c4ccccc4)CC3)o2)C1=O; 1
